target: human vitronectin receptor αvβ3 (Homo sapiens, UniProt P05106+P06756); construct: Human vitronectin receptor was obtained from the human placenta according to the method of Pytela et al; from tissue; host or cells: human placenta; assay: Kistrin binding assay (αvβ3 ELISA test, K/VnR); conditions: inhibition of the binding of kistrin to human vitronectin receptor (VnR), ELISA; read-out: K/VnR IC50
Sequence (P06756 31-889 limits assumed): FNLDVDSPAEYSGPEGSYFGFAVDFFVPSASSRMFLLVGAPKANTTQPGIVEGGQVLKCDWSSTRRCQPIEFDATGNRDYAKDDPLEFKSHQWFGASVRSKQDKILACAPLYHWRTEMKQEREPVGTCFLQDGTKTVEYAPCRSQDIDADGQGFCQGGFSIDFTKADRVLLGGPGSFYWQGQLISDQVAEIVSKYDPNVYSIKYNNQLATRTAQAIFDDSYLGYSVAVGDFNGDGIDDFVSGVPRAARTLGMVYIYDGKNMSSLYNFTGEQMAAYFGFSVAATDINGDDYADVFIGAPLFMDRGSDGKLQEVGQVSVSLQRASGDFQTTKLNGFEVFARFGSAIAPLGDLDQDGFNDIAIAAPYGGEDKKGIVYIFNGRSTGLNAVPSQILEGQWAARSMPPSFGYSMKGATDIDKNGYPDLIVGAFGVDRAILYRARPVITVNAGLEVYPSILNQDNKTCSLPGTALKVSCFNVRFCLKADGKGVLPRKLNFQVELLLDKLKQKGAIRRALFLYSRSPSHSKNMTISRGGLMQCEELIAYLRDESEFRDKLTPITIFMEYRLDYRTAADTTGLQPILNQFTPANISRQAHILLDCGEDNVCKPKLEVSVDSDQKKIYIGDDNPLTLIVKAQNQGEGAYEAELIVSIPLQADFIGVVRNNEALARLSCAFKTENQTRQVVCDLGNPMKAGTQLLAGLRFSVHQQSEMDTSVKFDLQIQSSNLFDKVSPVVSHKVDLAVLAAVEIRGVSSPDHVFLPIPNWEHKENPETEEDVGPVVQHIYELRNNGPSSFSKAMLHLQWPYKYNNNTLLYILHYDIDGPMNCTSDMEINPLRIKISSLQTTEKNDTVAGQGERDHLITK
Sequence (P06756 891-1048 partner limits assumed): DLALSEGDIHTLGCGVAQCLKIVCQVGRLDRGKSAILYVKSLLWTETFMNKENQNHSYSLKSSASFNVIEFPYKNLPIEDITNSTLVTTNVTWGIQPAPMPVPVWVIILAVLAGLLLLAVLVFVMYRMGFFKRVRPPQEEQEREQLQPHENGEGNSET
Sequence (P05106 27-788): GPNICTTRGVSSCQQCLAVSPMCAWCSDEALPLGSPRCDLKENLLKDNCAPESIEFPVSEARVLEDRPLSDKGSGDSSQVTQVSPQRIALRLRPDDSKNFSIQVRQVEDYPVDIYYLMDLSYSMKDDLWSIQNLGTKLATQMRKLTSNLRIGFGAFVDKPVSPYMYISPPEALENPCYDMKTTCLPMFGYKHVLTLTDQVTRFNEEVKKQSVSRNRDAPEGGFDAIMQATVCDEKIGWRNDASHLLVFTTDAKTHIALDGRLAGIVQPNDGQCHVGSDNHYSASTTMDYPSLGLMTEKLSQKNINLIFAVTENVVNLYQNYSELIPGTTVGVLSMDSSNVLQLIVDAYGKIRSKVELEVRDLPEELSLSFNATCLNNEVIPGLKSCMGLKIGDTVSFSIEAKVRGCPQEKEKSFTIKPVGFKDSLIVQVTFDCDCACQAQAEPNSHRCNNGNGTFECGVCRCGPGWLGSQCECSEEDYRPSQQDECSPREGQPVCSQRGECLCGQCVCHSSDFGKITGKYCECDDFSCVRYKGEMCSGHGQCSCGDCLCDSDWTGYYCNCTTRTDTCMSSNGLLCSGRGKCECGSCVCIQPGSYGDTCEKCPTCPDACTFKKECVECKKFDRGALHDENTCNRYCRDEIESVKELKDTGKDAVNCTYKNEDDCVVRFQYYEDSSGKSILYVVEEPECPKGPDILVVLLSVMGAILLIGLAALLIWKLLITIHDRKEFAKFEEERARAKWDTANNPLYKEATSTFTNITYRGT
pIC50: −log10 of the molar value.
measured_attribute: pIC50

P. Cc1nc(SC[C@H](NS(=O)(=O)c2cccc3ccccc23)C(=O)O)c2ccn(CCCC(=O)NC3=NCCCN3)c2n1
Q. Cc1nc(SC[C@H](NS(=O)(=O)c2ccccc2)C(=O)O)c2ccn(CCCC(=O)NC3=NCCCN3)c2n1
Could you please tell me which of these two has the higher pIC50: P or Q ? API: response body contains the label of the selected item.
P
(P: 8.30, Q: 8.00)

1. Cc1nc(NC[C@H](NC(=O)OCc2ccccc2)C(=O)O)c2ccn(CCCC(=O)NC3=NCCCN3)c2n1
2. Cc1nc(SC[C@H](NS(=O)(=O)c2ccc(Br)cc2)C(=O)O)c2ccn(CCCC(=O)NC3=NCCCN3)c2n1
Between 1 and 2 , which one has the lower reported pIC50 value? API: response body contains the label of the selected item.
2
